- System: Plasmodium falciparum
- method: Resistance index, ratio of IC50 for Plasmodium falciparum W2 to IC50 for Plasmodium falciparum D6
- Format: functional
measured parameter: Ratio IC50
One number for each entry.

Record excerpt, results attached:
Endpoint output: Ratio IC50 of `CCN(CC)CCNc1cc(C)nc2c1ccc1c2ccc2c(NCCN(CC)CC)cc(C)nc21.Cl` . Value?
0.57

Endpoint output: Ratio IC50 of `Cc1cc(NCCN2CCOCC2)c2ccc3c(ccc4c(NCCN5CCOCC5)cc(C)nc43)c2n1.Cl` . Value?
1.03

Endpoint output: Ratio IC50 of `Cc1cc(NCCCN(C)C)c2ccc3c(ccc4c(NCCCN(C)C)cc(C)nc43)c2n1.Cl` . Value?
3.41

Endpoint output: Ratio IC50 of `Cc1cc(NCCCN2CCCC2)c2ccc3c(ccc4c(NCCCN5CCCC5)cc(C)nc43)c2n1.Cl` . Value?
0.52

Let's switch to this compound now.
Endpoint output: Ratio IC50 of `Cc1cc(NCCCN2CCOCC2)c2ccc3c(ccc4c(NCCCN5CCOCC5)cc(C)nc43)c2n1.Cl` . Value?
0.38

###

- System: Plasmodium falciparum
- method: Resistance index, ratio of IC50 for Plasmodium falciparum C235 to IC50 for Plasmodium falciparum D6
- Assay type: functional
I'd appreciate it if you could supply Ratio IC50 values for the items below.

Please state Ratio IC50 for every compound in the list that follows.
1. Cc1cc(NCCN2CCCCC2)c2ccc3c(ccc4c(NCCN5CCCCC5)cc(C)nc43)c2n1.Cl
2. Cc1cc(NCCCN(C)C)c2ccc3c(ccc4c(NCCCN(C)C)cc(C)nc43)c2n1.Cl
3. Cc1cc(NCCN(C)C)c2ccc3c(ccc4c(NCCN(C)C)cc(C)nc43)c2n1.Cl

[1.2, 0.53, 0.98]

###

I'd appreciate it if you could supply selectivity ratio values for the items below.
- method: Selectivity index, ratio of IC50 for […] cells to IC50 for Plasmodium falciparum C235
- Format: toxicity, cell-based
- condition description: read-out: Ratio IC50
Numbers only.

Record excerpt, results attached:
Endpoint output: selectivity ratio of `Cc1cc(NCCN2CCOCC2)c2ccc3c(ccc4c(NCCN5CCOCC5)cc(C)nc43)c2n1.Cl` . Value?
1030

Endpoint output: selectivity ratio of `Cc1cc(NCCCN2CCOCC2)c2ccc3c(ccc4c(NCCCN5CCOCC5)cc(C)nc43)c2n1.Cl` . Value?
929

Further cases:
Endpoint output: selectivity ratio of `CCN(CC)CCNc1cc(C)nc2c1ccc1c2ccc2c(NCCN(CC)CC)cc(C)nc21.Cl` . Value?
282

###

I'd appreciate it if you could supply selectivity ratio values for the items below.
- method: Selectivity index, ratio of IC90 for […] cells to IC90 for Plasmodium falciparum C235
- Type: toxicity, cell-based
Numbers only.

Record excerpt, results attached:
Endpoint output: selectivity ratio of `Cc1cc(NCCN2CCOCC2)c2ccc3c(ccc4c(NCCN5CCOCC5)cc(C)nc43)c2n1.Cl` . Value?
1820

Endpoint output: selectivity ratio of `CCN(CC)CCNc1cc(C)nc2c1ccc1c2ccc2c(NCCN(CC)CC)cc(C)nc21.Cl` . Value?
2830

Let's switch to this compound now.
Endpoint output: selectivity ratio of `Cc1cc(NCCCN2CCOCC2)c2ccc3c(ccc4c(NCCCN5CCOCC5)cc(C)nc43)c2n1.Cl` . Value?
635
